Measured Papp accompanies every entry in the list below.
assay: Permeability of the compound at pH 7.4 by PAMPA assay; type: ADME; conditions: read-out: permeability
Measured endpoint: Papp (×10⁻⁶ cm/s)

Chemical structure | Relation qualifier | Recorded number
O=C(NCc1cccnc1)c1ccc2ccc(C(=O)c3ccccc3)c-2cc1 | = | 2.4
COC(=O)c1ccc2c(C(=O)N(C)C)cn(C)c2c1 | = | 4.2
CN(C)C(=O)c1c[nH]c2ccccc12 | = | 2.2
O=C(Cn1ccccc1=O)Nc1cc2ccccc2[nH]1 | = | 0.1
O=C(Cn1ccccc1=O)Nc1cc2cccccc-2c1 | = | 3.7
O=C(NCCc1c[nH]c2ccccc12)c1ccc2[nH]cc(C(=O)c3ccccc3)c2c1 | < | 0.01

###

assay: Stability of the compound at pH 7.4 assessed as half life measured after 24 hrs in presence of GSH by HPLC analysis; type: physicochemical; conditions: solution with GSH

Compound | half-life
COC(=O)c1ccc2ccc(C(=O)N(C)C)c-2cc1 | > 41.7 days
CN(C)C(=O)Cc1ccc2cccc-2cc1 | > 41.7 days
O=C(Cn1ccccc1=O)Nc1cc2cccccc-2c1 | > 41.7 days
C=CC(=O)N1C[C@H](Nc2ncnc3[nH]ccc23)CC[C@@H]1C [RITLECITINIB] | 1.33 days
O=C(O)c1ccc2cccc-2cc1 | > 41.7 days
CN(C)C(=O)c1ccc2cccccc1-2 | > 41.7 days
O=C(O)c1ccc2ccc(C(=O)c3ccccc3)c-2cc1 | > 41.7 days

###

Examples of molecules with documented solubility thermodynamic at 24 h follow.
assay: Aqueous solubility of the compound at pH 6.8 incubated for 24 hrs under shaking condition by LC-UV analysis; format: physicochemical; settings: aqueous medium
Measured endpoint: solubility thermodynamic at 24 h

Chemical structure | Result
CN(C)C(=O)c1cn(C)c2ccccc12 | > 51 µg/mL
Cn1cc(C(=O)c2ccccc2)c2cc(C(=O)NCc3cccnc3)ccc21 | < 1 µg/mL
Cn1cc(C(=O)c2ccccc2)c2cc(C(=O)NCCc3c[nH]c4ccccc34)ccc21 | < 1 µg/mL

###

assay: Lipophilicity, logP of the compound; format: physicochemical; conditions: octanol/water; read-out: logP
Listing of recorded logP by entry.

Compound | Relation qualifier | logP
Cn1cc(C(=O)c2ccccc2)c2cc(C(=O)NCCO)ccc21 | = | 1.3
CN1CCN(C(=O)c2ccc3ccc(C(=O)c4ccccc4)c-3cc2)CC1 | = | 3
O=C(NCc1cccnc1)c1ccc2[nH]cc(C(=O)c3ccccc3)c2c1 | = | 1.4
c1cc2ccc(CN3CCCCC3)ccc-2c1 | > | 5.5
CN1CCN(C(=O)c2ccc3[nH]cc(C(=O)c4ccccc4)c3c2)CC1 | = | 1.3
CN(C)C(=O)Cc1ccc2cccc-2cc1 | = | 2.2
Cn1cc(C(=O)c2ccccc2)c2cc(C(=O)NCc3cccnc3)ccc21 | = | 2.1
CN1CCN(C(=O)c2ccc3c(c2)c(C(=O)c2ccccc2)cn3C)CC1 | = | 2
COC(=O)c1ccc2c(c1)c(C(=O)c1ccccc1)cn2C(=O)c1ccccc1 | = | 5.2
O=C(Nc1ccc2ccccc2c1)c1cccnc1 | = | 2.4
c1ccc2cc(CN3CCCCC3)ccc2c1 | > | 5.5
O=C(NCCO)c1ccc2ccc(C(=O)c3ccccc3)c-2cc1 | = | 2.2
COC(=O)c1ccc2ccc(C(=O)c3ccccc3)c-2cc1 | = | 4.7
Cn1cc(C(=O)c2ccccc2)c2cc(C(=O)NCCc3c[nH]c4ccccc34)ccc21 | = | 3.5
Cn1cc(C(=O)c2ccccc2)c2cc(C(=O)NCCc3cnc[nH]3)ccc21 | = | 1.5
COC(=O)c1ccc2c(ccn2C(=O)c2ccccc2)c1 | = | 4.4
CN(C)C(=O)Cc1ccc2ccn(C)c2c1 | = | 1.7
COC(=O)c1ccc2ccc(C(=O)Nc3ccccc3)c-2cc1 | = | 3.8
COC(=O)c1ccc2c(C(=O)c3ccccc3)cc(C(=O)c3ccccc3)c-2cc1 | = | 5.5
O=C(NCCc1c[nH]c2ccccc12)c1ccc2ccc(C(=O)c3ccccc3)c-2cc1 | = | 4.3
O=C(NCc1cccnc1)c1ccc2ccc(C(=O)c3ccccc3)c-2cc1 | = | 3
O=C(NCCc1cnc[nH]1)C1=CC2C(C(=O)c3ccccc3)=CN=C2C=C1 (centres undefined) | = | 0.8
COC(=O)c1ccc2ccn(C(=O)c3ccccc3)c2c1 | = | 4.3
Cn1c(NC(=O)c2cccnc2)cc2ccccc21 | = | 1.3
COC(=O)c1ccc2ccc(C(=O)N(C)C)c-2cc1 | = | 2.1
COC(=O)c1ccc2c(C(=O)c3ccccc3)cn(C(=O)c3ccccc3)c2c1 | = | 5.2
O=C(Cn1ccccc1=O)Nc1cc2cccccc-2c1 | = | 1.7
O=C(NCCc1cnc[nH]1)c1ccc2ccc(C(=O)c3ccccc3)c-2cc1 | = | 2.3
O=C(Nc1cc2cccccc-2c1)c1cccnc1 | = | 2.4
